B1: ACBD3 (parent)
chain: YVASHKIEKEEQEKKRKEEEERRR

Variants of: B1
Assay: protein stability index of a GFP-peptide fusion (GPS, HEK-293T) (PSI 1-6); higher = more stable;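 also: lentivirally expressed fusions sorted by FACS into six bins by GFP to DsRed ratio, PSI derived from sequencing read proportions per bin multiplied by bin number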
Conditions: c terminus: a fixed tail appended
recorded-endpoint: protein stability index
Numbers only.

For each entry beneath this line, provide reported protein stability index.
1. K14S
2. E10H
3. I7W
4. R24K

1: 2.74; 2: 1.66; 3: 1.81; 4: 2.65

Below is a list of variants. For each, state its recorded protein stability index.
1. E8P
2. K17W
3. Q12R
4. E13Q
5. E18C
6. K15E

2.29
1.84
2.26
2
2.12
3.07

# batch: return protein stability index for each of the 3 variants below
1. Y1I
2. K17N
3. H5L

1. 5
2. 2.99
3. 2.82

For each of the variants below, note its protein stability index.
1. Y1C
2. S4T
3. A3P
4. H5D
5. R23P
6. E8W
7. E13V
8. R22K

[4.93, 2.74, 1.47, 4.25, 2.46, 2.03, 2.93, 2.69]

# lookup: protein stability index of `S4A` 2.9

Data provenance is the supplement of paper PMC10567573.
